Catalogue of MIC readings, one per entry.
tested on: clinical methicillin resistant Staphylococcus aureus (MRSA) isolates; assay: MIC against clinical MRSA isolates, LB microdilution assay; settings: Staphylococcus aureus, MRSA, MRSA AG038, strain 70-26S Gm^S
Respond numerically; units are µg/mL and should not be typed.

Example entries begin here.
*Q* Give its MIC value. Item: CNC1C(OC2OC(CO)C(N)C(O)C2O)OC2CC(N)C(OC3C(N)CC(N)C(O)C3O)OC2C1O (stereo not drawn) [Apramycin]
*A* 8

*Q* For NCC[C@H](O)C(=O)N[C@@H]1C[C@H](N)[C@@H](O[C@H]2O[C@H](CN)[C@@H](O)[C@H](O)[C@H]2O)[C@H](O)[C@H]1O[C@H]1O[C@H](CO)[C@@H](O)[C@H](N)[C@H]1O [Amikacin] , what is its reported MIC?
*A* 4

*Q* GET /values?readout=MIC&item= NC[C@H]1O[C@H](O[C@H]2[C@H](O)[C@@H](O[C@H]3O[C@H](CO)[C@@H](O)[C@H](N)[C@H]3O)[C@H](N)C[C@@H]2N)[C@H](O)[C@@H](O)[C@@H]1O [Kanamicin A]
*A* 4

Next:
*Q* Request the reported MIC associated with CN[C@@H]1[C@@H](O)[C@@H](O[C@@H]2[C@@H](O)[C@H](O[C@H]3OC(CN)=CC[C@H]3N)[C@@H](N)C[C@H]2N)OC[C@]1(C)O [Sisomicin]
*A* 0.25
